A collection of molecules and their measured Minimum inhibitory concentration
- System: Candida albicans clinical strains
- Method notes: MIC, clinical yeast strains
- Assay type: cell-based
- Set-up: unit: μg/ml
- Measurement conditions: Candida albicans clinical yeast strain 2
Square brackets hold non-standard residues; d marks the D form. Peptide text beside a SMILES is read from it.
Please state the value as a number alone, without comment.

Example entries and their recorded answers appear below.
| Molecule | Target entity | Minimum inhibitory concentration |
| --- | --- | --- |
| CC(C)C[C@@H](NC(=O)[C@@H](CCCCN)NC(=O)[C@@H](Cc1c[nH]c2ccccc12)NC(=O)[C@@H](CCCCN)NC(=O)[C@@H](C)NC(=O)[C@@H](Cc1c[nH]cn1)NC(=O)[C@@H](CC(C)C)NC(=O)[C@@H](CCCNC(=N)N)NC(=O)[C@@H](Cc1c[nH]c2ccccc12)NC(=O)[C@H](N)Cc1c[nH]c2ccccc12)C(=O)N[C@H](Cc1c[nH]c2ccccc12)C(=O)O [Chain109D] (H-[dW][dW][dR][dL][dH][dA][dK][dW][dK][dL][dW]-OH) | Candida albicans clinical strains | 128 |
| CC(C)C[C@@H](NC(=O)[C@H](N)CCCNC(=N)N)C(=O)N[C@H](CCCCN)C(=O)N[C@H](Cc1c[nH]c2ccccc12)C(=O)N[C@H](Cc1ccccc1)C(=O)N[C@H](Cc1c[nH]c2ccccc12)C(=O)N[C@H](CC(C)C)C(=O)N[C@H](Cc1ccccc1)C(=O)N[C@H](CCCNC(=N)N)C(=O)N[C@H](CCCCN)C(=O)N[C@H](CCCNC(=N)N)C(=O)O [Chain307D] (H-[dR][dL][dK][dW][dF][dW][dL][dF][dR][dK][dR]-OH) | Candida albicans clinical strains | 16 |

Next up:
Any idea what its Minimum inhibitory concentration is? The molecule is CC(C)C[C@@H](NC(=O)[C@H](N)CCCNC(=N)N)C(=O)N[C@H](CCCCN)C(=O)N[C@H](CCCNC(=N)N)C(=O)N[C@H](Cc1c[nH]c2ccccc12)C(=O)N[C@H](CCCNC(=N)N)C(=O)N[C@H](CC(C)C)C(=O)N[C@H](Cc1ccccc1)C(=O)N[C@H](CCCNC(=N)N)C(=O)N[C@H](CCCCN)C(=O)N[C@H](CCCNC(=N)N)C(=O)O [Chain306D] (H-[dR][dL][dK][dR][dW][dR][dL][dF][dR][dK][dR]-OH)
8

###

- System: C. parapsilosis clinical strains
- Method notes: MIC, clinical yeast strains
- Assay type: cell-based, Candida parapsilosis
- Set-up: unit: µg/ml
- Measurement conditions: C. parapsilosis clinical yeast strain 2
Square brackets hold non-standard residues; d marks the D form. Peptide text beside a SMILES is read from it.
Measurement kind: Minimum inhibitory concentration
Please state the value as a number alone, without comment.

| Molecule | Minimum inhibitory concentration |
| --- | --- |
| CC(C)C[C@@H](NC(=O)[C@H](N)CCCNC(=N)N)C(=O)N[C@H](CCCCN)C(=O)N[C@H](Cc1c[nH]c2ccccc12)C(=O)N[C@H](Cc1ccccc1)C(=O)N[C@H](CC(C)C)C(=O)N[C@H](CC(C)C)C(=O)N[C@H](Cc1ccccc1)C(=O)N[C@H](CCCNC(=N)N)C(=O)N[C@H](CCCCN)C(=O)N[C@H](CCCNC(=N)N)C(=O)O [Chain308D] (H-[dR][dL][dK][dW][dF][dL][dL][dF][dR][dK][dR]-OH) | 8 |

Next up:
Any idea what its Minimum inhibitory concentration is? The molecule is CC(C)C[C@@H](NC(=O)[C@H](N)CCCNC(=N)N)C(=O)N[C@H](CCCCN)C(=O)N[C@H](CCCNC(=N)N)C(=O)N[C@H](Cc1c[nH]c2ccccc12)C(=O)N[C@H](CCCNC(=N)N)C(=O)N[C@H](CC(C)C)C(=O)N[C@H](Cc1ccccc1)C(=O)N[C@H](CCCNC(=N)N)C(=O)N[C@H](CCCCN)C(=O)N[C@H](CCCNC(=N)N)C(=O)O [Chain306D] (H-[dR][dL][dK][dR][dW][dR][dL][dF][dR][dK][dR]-OH)
16

###

- Tested on: C. glabrata clinical strains
- Method notes: MIC, clinical yeast strains
- Format: cell-based, Candida glabrata
- Design: unit: µg/ml
- Measurement conditions: C. glabrata clinical yeast strain 1
Square brackets hold non-standard residues; d marks the D form. Peptide text beside a SMILES is read from it.
Measurement kind: Minimum inhibitory concentration
Please state the value as a number alone, without comment.

| Compound | Minimum inhibitory concentration |
| --- | --- |
| CC[C@@H](C)[C@@H](NC(=O)[C@@H](CC(C)C)NC(=O)[C@@H](CCCNC(=N)N)NC(=O)[C@H](N)CCCNC(=N)N)C(=O)N[C@H](Cc1c[nH]c2ccccc12)C(=O)N[C@H](CCCNC(=N)N)C(=O)N[C@H](CCCNC(=N)N)C(=O)N[C@H](Cc1ccccc1)C(=O)N[C@H](CCCCN)C(=O)N[C@H](Cc1c[nH]c2ccccc12)C(=O)N[C@H](CC(C)C)C(=O)N[C@H](CCCNC(=N)N)C(=O)O [Chain204D] (H-[dR][dR][dL][dI][dW][dR][dR][dF][dK][dW][dL][dR]-OH) | 4 |

Any idea what its Minimum inhibitory concentration is? The compound is CC(C)C[C@@H](NC(=O)[C@H](N)CCCNC(=N)N)C(=O)N[C@H](CCCCN)C(=O)N[C@H](CCCNC(=N)N)C(=O)N[C@H](Cc1c[nH]c2ccccc12)C(=O)N[C@H](CCCNC(=N)N)C(=O)N[C@H](CC(C)C)C(=O)N[C@H](Cc1ccccc1)C(=O)N[C@H](CCCNC(=N)N)C(=O)N[C@H](CCCCN)C(=O)N[C@H](CCCNC(=N)N)C(=O)O [Chain306D] (H-[dR][dL][dK][dR][dW][dR][dL][dF][dR][dK][dR]-OH)
8

Any idea what its Minimum inhibitory concentration is? The compound is CC(C)C[C@@H](NC(=O)[C@@H](CCCCN)NC(=O)[C@@H](CCCCN)NC(=O)[C@@H](Cc1ccccc1)NC(=O)[C@@H](CC(C)C)NC(=O)[C@@H](Cc1c[nH]c2ccccc12)NC(=O)[C@@H](CCCNC(=N)N)NC(=O)[C@@H](Cc1c[nH]c2ccccc12)NC(=O)[C@@H](CCCCN)NC(=O)[C@@H](CCCNC(=N)N)NC(=O)[C@H](N)CCCCN)C(=O)O [Chain310D] (H-[dK][dR][dK][dW][dR][dW][dL][dF][dK][dK][dL]-OH)
16

Any idea what its Minimum inhibitory concentration is? The compound is "C[C@@H]1[C@H](O)[C@@H](C)/C=C/C=C/C=C/C=C/C=C/C=C/C=C/[C@H](O[C@@H]2O[C@H](C)[C@@H](O)[C@H](N)[C@@H]2O)C[C@@H]2O[C@](O)(C[C@@H](O)C[C@@H](O)[C@H](O)CC[C@@H](O)C[C@@H](O)CC(=O)O[C@H]1C)C[C@H](O)[C@H]2C(=O)O"
4

Any idea what its Minimum inhibitory concentration is? The compound is CC[C@@H](C)[C@@H](NC(=O)[C@@H](Cc1c[nH]c2ccccc12)NC(=O)[C@H](N)CCCCN)C(=O)N[C@@H](C(=O)N[C@H](Cc1c[nH]c2ccccc12)C(=O)N[C@H](CCCNC(=N)N)C(=O)N[C@H](Cc1c[nH]c2ccccc12)C(=O)N[C@H](CCCNC(=N)N)C(=O)N[C@H](Cc1ccccc1)C(=O)N[C@H](CCCCN)C(=O)N[C@H](CCCNC(=N)N)C(=O)O)C(C)C [Chain201D] (H-[dK][dW][dI][dV][dW][dR][dW][dR][dF][dK][dR]-OH)
8

Any idea what its Minimum inhibitory concentration is? The compound is CC(C)C[C@@H](NC(=O)[C@H](N)CCCNC(=N)N)C(=O)N[C@H](CCCCN)C(=O)N[C@H](Cc1c[nH]c2ccccc12)C(=O)N[C@H](Cc1ccccc1)C(=O)N[C@H](CC(C)C)C(=O)N[C@H](CC(C)C)C(=O)N[C@H](Cc1ccccc1)C(=O)N[C@H](CCCNC(=N)N)C(=O)N[C@H](CCCCN)C(=O)N[C@H](CCCNC(=N)N)C(=O)O [Chain308D] (H-[dR][dL][dK][dW][dF][dL][dL][dF][dR][dK][dR]-OH)
16

###

A collection of molecules and their measured Minimum inhibitory concentration
- Tested on: Proteus mirabilis clinical strains
- Format: cell-based
- Set-up: unit: μg/ml
- Measurement conditions: Proteus mirabilis clinical strain 2; microdilution, Muller Hinton broth-cation adjusted, 0.02% BSA, 0.2% acetic acid
Square brackets hold non-standard residues; d marks the D form. Peptide text beside a SMILES is read from it.

Example entries and their recorded answers appear below.
| Molecule | Minimum inhibitory concentration |
| --- | --- |
| CC[C@@H](C)[C@@H](N)C(=O)N[C@H](Cc1c[nH]c2ccccc12)C(=O)N[C@H](CCCCN)C(=O)N[C@H](CCCNC(=N)N)C(=O)N[C@H](Cc1ccccc1)C(=O)N[C@H](CCCNC(=N)N)C(=O)N[C@H](CC(C)C)C(=O)N[C@H](Cc1ccccc1)C(=O)N[C@H](CCCCN)C(=O)N[C@H](CCCCN)C(=O)N[C@H](Cc1c[nH]c2ccccc12)C(=O)O [Chain304D] (H-[dI][dW][dK][dR][dF][dR][dL][dF][dK][dK][dW]-OH) | >128 |
| CC(C)C[C@@H](NC(=O)[C@@H](Cc1c[nH]c2ccccc12)NC(=O)[C@@H](Cc1ccccc1)NC(=O)[C@@H](Cc1c[nH]c2ccccc12)NC(=O)[C@@H](CCCCN)NC(=O)[C@@H](CCCNC(=N)N)NC(=O)[C@H](N)Cc1c[nH]c2ccccc12)C(=O)N[C@H](Cc1ccccc1)C(=O)N[C@H](CCCCN)C(=O)N[C@H](CCCCN)C(=O)N[C@H](CCCNC(=N)N)C(=O)O [Chain309D] (H-[dW][dR][dK][dW][dF][dW][dL][dF][dK][dK][dR]-OH) | >128 |
| CC[C@@H](C)[C@@H](NC(=O)[C@@H](Cc1c[nH]c2ccccc12)NC(=O)[C@H](N)CCCCN)C(=O)N[C@@H](C(=O)N[C@H](Cc1c[nH]c2ccccc12)C(=O)N[C@H](CCCNC(=N)N)C(=O)N[C@H](Cc1c[nH]c2ccccc12)C(=O)N[C@H](CCCNC(=N)N)C(=O)N[C@H](Cc1ccccc1)C(=O)N[C@H](CCCCN)C(=O)N[C@H](CCCNC(=N)N)C(=O)O)C(C)C [Chain201D] (H-[dK][dW][dI][dV][dW][dR][dW][dR][dF][dK][dR]-OH) | 32 |

// lookup Minimum inhibitory concentration | system=Proteus mirabilis clinical strains | key= CC(C)C[C@@H](NC(=O)[C@H](N)CCCNC(=N)N)C(=O)N[C@H](CCCCN)C(=O)N[C@H](Cc1c[nH]c2ccccc12)C(=O)N[C@H](Cc1ccccc1)C(=O)N[C@H](CC(C)C)C(=O)N[C@H](CC(C)C)C(=O)N[C@H](Cc1ccccc1)C(=O)N[C@H](CCCNC(=N)N)C(=O)N[C@H](CCCCN)C(=O)N[C@H](CCCNC(=N)N)C(=O)O [Chain308D] (H-[dR][dL][dK][dW][dF][dL][dL][dF][dR][dK][dR]-OH)
32

// lookup Minimum inhibitory concentration | system=Proteus mirabilis clinical strains | key= CC[C@@H](C)[C@@H](NC(=O)[C@@H](CC(C)C)NC(=O)[C@@H](CCCNC(=N)N)NC(=O)[C@H](N)CCCNC(=N)N)C(=O)N[C@H](Cc1c[nH]c2ccccc12)C(=O)N[C@H](CCCNC(=N)N)C(=O)N[C@H](CCCNC(=N)N)C(=O)N[C@H](Cc1ccccc1)C(=O)N[C@H](CCCCN)C(=O)N[C@H](Cc1c[nH]c2ccccc12)C(=O)N[C@H](CC(C)C)C(=O)N[C@H](CCCNC(=N)N)C(=O)O [Chain204D] (H-[dR][dR][dL][dI][dW][dR][dR][dF][dK][dW][dL][dR]-OH)
32
